SYSTEM UNDER TEST: TlGUS L1 (Treponema lecithinolyticum β-glucuronidase) (Treponema lecithinolyticum)
Construct: recombinant, N-terminal (His)6 tag retained
Sequence (A0AA82WPE8 entry or part of it): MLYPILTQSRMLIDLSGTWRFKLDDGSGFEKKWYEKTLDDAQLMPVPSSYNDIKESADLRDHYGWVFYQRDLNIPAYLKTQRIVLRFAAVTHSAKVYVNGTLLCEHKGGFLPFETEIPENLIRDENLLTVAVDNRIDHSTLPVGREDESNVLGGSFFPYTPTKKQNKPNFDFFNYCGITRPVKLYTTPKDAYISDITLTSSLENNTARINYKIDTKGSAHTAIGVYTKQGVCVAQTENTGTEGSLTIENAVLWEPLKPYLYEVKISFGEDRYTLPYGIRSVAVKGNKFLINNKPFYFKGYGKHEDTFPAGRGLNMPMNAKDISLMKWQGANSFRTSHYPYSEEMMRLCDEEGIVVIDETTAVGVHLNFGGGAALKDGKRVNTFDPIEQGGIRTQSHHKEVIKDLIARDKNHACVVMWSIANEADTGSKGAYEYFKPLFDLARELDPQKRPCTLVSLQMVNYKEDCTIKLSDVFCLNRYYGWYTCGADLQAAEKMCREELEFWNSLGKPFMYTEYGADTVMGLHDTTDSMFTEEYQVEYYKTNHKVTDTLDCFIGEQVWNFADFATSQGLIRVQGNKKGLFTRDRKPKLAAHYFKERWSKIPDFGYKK
EXPERIMENT NOTES: […] Å crystal structure (as ciprofloxacin-GlcA conjugate formed with PNPG); IC50
Type: biochemical
MEASURE NAME: pIC50
In textbook form, pIC50 equals minus log to base ten of the concentration in mol/L.

Ask | Recorded pIC50 for O=C(O)c1cn(C2CC2)c2cc(N3CCNCC3)c(F)cc2c1=O [ciprofloxacin] , please?
Reply | 4.74

----------
SYSTEM UNDER TEST: TlGUS L1 (Treponema lecithinolyticum β-glucuronidase) (Treponema lecithinolyticum)
Construct: recombinant, N-terminal (His)6 tag retained
EXPERIMENT NOTES: […] Å crystal structure (as UNC4917-GlcA conjugate formed with PNPG); 4-MUG hydrolysis IC50
Format: biochemical
MEASURE NAME: IC50 (nM)
// units = nM; emit number, no label

Ask | Recorded IC50 for CNc1ccc2c(n1)sc1c(N3CCNCC3)nc(NC)nc12 , please?
Reply | 2500

The values you see were collected from paper PMC10162664.
